Numbers sourced from ChEMBL document CHEMBL5233269.

# System: Jurkat
# experimentDescription: Cytotoxicity against human Jurkat cells
# Type: functional, cell-based

smilesInput: O=C(/C=C1\CC(=O)N(c2ccc(Cl)cc2)C1=O)Nc1ccc(Cl)cc1
IC50 (µM): 33.5

====

# System: L02
# experimentDescription: Antiproliferative activity against human L02 cells by MTT assay
# Assay type: functional, cell-based
Entries and their measured IC50 follow.

molecule: O=C1C(=O)C2C(N=C3N=NNN3C23C(=O)Nc2c(Cl)cccc23)c2ccccc21 (centres undefined)
systemUnderTest: L02
IC50 (µM): 49.5
//
molecule: O=C1C(=O)C2C(N=C3N=NNN3C23C(=O)Nc2c(C(F)(F)F)cccc23)c2ccccc21 (centres undefined)
systemUnderTest: L02
IC50 (µM): 49.9
//
molecule: O=C1C(=O)C2C(N=C3N=NNN3C23C(=O)Nc2ccc(F)cc23)c2ccccc21 (centres undefined)
systemUnderTest: L02
IC50 (µM): 58.9
//
molecule: Cc1coc2c1C(=O)C(=O)c1c-2ccc2c1CCCC2(C)C [TANSHINONE IIA]
systemUnderTest: L02
IC50 (µM): 65.3

====

Entries and their measured IC50 follow.
# Tested on: A549
# experimentDescription: Anticancer activity against human A549 cells assessed as reduction in cell viability incubated for 48 hrs by MTT assay
# Type: functional, cell-based
# statedConditions: A549, 48 h

compound: COC1=CC2(C=C(C(=O)Oc3c(F)cc(F)cc3F)c3cc(OC)cc(OC)c32)C(OC)=CC1=O (centres undefined)
IC50 [µM]: 10.4
//
compound: COC1=CC2(C=C(C(=O)NNc3ccc(F)c(F)c3)c3cc(OC)cc(OC)c32)C(OC)=CC1=O (centres undefined)
IC50 [µM]: 20.4
//
compound: COC1=CC2(C=C(C(=O)Oc3cccc(F)c3F)c3cc(OC)cc(OC)c32)C(OC)=CC1=O (centres undefined)
IC50 [µM]: 9.58
//
compound: COC1=CC2(C=C(C(=O)NNc3ccc(OC(F)(F)F)cc3)c3cc(OC)cc(OC)c32)C(OC)=CC1=O (centres undefined)
IC50 [µM]: 17.9

====

# experimentDescription: Anticancer activity against human BJ cells assessed as reduction in cell proliferation
# Type: toxicity, cell-based

molecule: CC1CO[C@@]2(O[C@H]3CC4C5CC[C@@H]6C[C@@H](O)CC[C@]6(C)C5CC(=O)[C@]4(C)[C@H]3[C@@H]2C)/C(=C/c2ccccc2)C1 (stereo partly specified)
IC50, µM: 45.3

====

# experimentDescription: Cytotoxicity against HEK293T cells incubated for 72 hrs by MTT assay
# Format: toxicity, cell-based, HEK-293T
# statedConditions: human
Entries and their measured IC50 at 72 h follow.
attributeMeasured: IC50 at 72 h (µM)

compound: CN1C[C@H](c2ccc(F)cc2)[C@]2(NC(=O)NC2=O)C12C(=O)Nc1ccccc12 (some centres not stated)
unitAbbreviation: µM
numericResult: 14.3
//
compound: CN1C[C@H](c2ccc(Cl)cc2)[C@]2(NC(=O)NC2=O)C12C(=O)Nc1ccc(Br)cc12 (some centres not stated)
unitAbbreviation: µM
numericResult: 9.2

====

Entries and their measured IC50 follow.
# System: HeLa
# experimentDescription: Anticancer activity against human HeLa cells
# Format: functional, cell-based
attributeMeasured: IC50

compound: Cc1ccc2c(c1)C1(Nc3ccccc3NC3COC(=O)C31)C(=O)N2 (stereo not given)
result: 9.58 µM
--
compound: O=C1OCC2Nc3ccccc3NC3(C(=O)N(Cc4ccccc4)c4ccccc43)C12 (stereo not given)
result: 2.29 µM
--
compound: O=C1OCC2Nc3ccc(Cl)cc3NC3(C(=O)Nc4ccccc43)C12 (stereo not given)
result: 5.37 µM
--
compound: O=C1OCC2Nc3ccccc3NC3(C(=O)N(Cc4ccccc4)c4ccc(Br)cc43)C12 (stereo not given)
result: 11.9 µM
--
compound: O=C1OCC2Nc3ccccc3NC3(C(=O)N(Cc4ccccc4)c4ccc(Cl)cc43)C12 (stereo not given)
result: 15.9 µM

====

Entries and their measured pIC50 follow.
# System: B16-F10
# experimentDescription: Anticancer activity against mouse B16-F10 cells
# Type: functional, cell-based
pIC50: −log10 of the molar value.
attributeMeasured: pIC50

smilesInput: CN1C(=O)N(C)C(=O)C2(CC3(C(=O)c4ccccc4C3=O)N(C)[C@H]2c2ccccc2)C1=O
systemUnderTest: B16-F10
numericResult: 5.46

smilesInput: CN1C(=O)N(C)C(=O)C2(CC3(C(=O)c4ccccc4C3=O)N(C)[C@H]2c2ccc(Br)cc2)C1=O
systemUnderTest: B16-F10
numericResult: 5.28

smilesInput: Cc1cc(Cl)ccc1[C@@H]1N(C)C2(CC13C(=O)N(C)C(=O)N(C)C3=O)C(=O)c1ccccc1C2=O
systemUnderTest: B16-F10
numericResult: 5.08

====

Entries and their measured IC50 follow.
# System: A-431
# experimentDescription: Anticancer activity against human A-431 cells
# Assay type: functional, cell-based

molecule: CC1(C)CC(=O)C2C(C1)N(c1ccccc1F)C(=O)C21c2ccccc2NC2C(=O)CC(C)(C)CC21 (stereo not drawn)
IC50: 52.1 µM
--
molecule: COc1cccc(N2C(=O)C3(c4ccccc4NC4C(=O)CC(C)(C)CC43)C3C(=O)CC(C)(C)CC32)c1 (stereo not drawn)
IC50: 55.6 µM
--
molecule: CC1(C)CC(=O)C2C(C1)N(c1ccccn1)C(=O)C21c2ccccc2NC2C(=O)CC(C)(C)CC21 (stereo not drawn)
IC50: 42.4 µM
